# maps each entry to its EC50 (nM), calcium flux, Expt II
MEASUREMENT TARGET: T1, human NPR1 on HEK293/hNPR1.myc.DDK cells (0 hANP) (human, UniProt P16066 33-1061)
T1 sequence: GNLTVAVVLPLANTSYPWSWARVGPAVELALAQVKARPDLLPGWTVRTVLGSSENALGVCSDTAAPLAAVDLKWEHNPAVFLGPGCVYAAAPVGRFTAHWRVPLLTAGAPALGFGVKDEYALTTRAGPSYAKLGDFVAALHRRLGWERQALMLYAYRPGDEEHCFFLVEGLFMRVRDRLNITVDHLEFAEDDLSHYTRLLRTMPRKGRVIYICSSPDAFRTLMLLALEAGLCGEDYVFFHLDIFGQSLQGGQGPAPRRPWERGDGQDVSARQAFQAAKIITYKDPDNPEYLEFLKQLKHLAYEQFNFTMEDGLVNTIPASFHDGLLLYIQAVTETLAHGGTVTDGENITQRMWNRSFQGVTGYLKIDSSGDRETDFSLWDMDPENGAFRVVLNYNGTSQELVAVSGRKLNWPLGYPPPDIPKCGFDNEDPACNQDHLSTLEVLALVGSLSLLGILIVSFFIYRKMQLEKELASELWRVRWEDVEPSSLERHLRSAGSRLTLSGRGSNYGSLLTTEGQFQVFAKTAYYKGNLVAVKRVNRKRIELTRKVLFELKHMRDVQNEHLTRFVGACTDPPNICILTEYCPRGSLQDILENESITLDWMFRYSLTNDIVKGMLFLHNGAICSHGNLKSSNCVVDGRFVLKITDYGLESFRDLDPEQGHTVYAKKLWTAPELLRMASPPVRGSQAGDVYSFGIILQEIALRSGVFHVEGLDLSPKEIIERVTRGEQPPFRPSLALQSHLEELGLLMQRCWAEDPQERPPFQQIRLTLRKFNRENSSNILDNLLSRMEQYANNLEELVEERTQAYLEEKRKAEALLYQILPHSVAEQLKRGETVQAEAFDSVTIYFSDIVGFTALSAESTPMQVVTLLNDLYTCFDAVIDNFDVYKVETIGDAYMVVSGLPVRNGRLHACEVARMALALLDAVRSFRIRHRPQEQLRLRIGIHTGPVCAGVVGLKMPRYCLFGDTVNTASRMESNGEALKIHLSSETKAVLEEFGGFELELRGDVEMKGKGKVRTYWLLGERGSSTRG
EXPERIMENTAL PROTOCOL: cell-based or functional assay

{"columns": ["BINDER", "EC50 (nM), calcium flux, Expt II"],
 "data": [
  ["mAb25479 (antibody, human IgG4, V domains shown) VH: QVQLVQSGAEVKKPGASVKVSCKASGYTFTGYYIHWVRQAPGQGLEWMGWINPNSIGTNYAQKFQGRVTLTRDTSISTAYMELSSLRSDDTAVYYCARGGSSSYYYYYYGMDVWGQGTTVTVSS VL: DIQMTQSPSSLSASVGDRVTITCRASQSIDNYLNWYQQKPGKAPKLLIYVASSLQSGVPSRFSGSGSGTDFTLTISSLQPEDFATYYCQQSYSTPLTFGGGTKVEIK", 102],
  ["mAb22805 (antibody, human IgG4, V domains shown) VH: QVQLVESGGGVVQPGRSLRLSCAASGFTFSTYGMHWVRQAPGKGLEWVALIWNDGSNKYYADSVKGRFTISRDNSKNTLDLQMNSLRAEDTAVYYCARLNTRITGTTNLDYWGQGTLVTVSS VL: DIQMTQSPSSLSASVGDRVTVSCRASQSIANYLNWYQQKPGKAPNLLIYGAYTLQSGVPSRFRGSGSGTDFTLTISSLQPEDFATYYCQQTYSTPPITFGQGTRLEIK", 112],
  ["mAb25497 (antibody, human IgG4, V domains shown) VH: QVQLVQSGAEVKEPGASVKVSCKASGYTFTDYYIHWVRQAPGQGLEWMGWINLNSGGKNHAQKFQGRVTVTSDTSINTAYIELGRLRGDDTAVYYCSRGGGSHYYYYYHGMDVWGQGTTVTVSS VL: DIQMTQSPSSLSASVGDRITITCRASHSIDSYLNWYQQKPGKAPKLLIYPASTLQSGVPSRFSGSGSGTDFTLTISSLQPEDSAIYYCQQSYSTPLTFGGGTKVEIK", 56.4]
]}

Data origin, for the record: patent US20240309103A1
